Target: T1, human VISTA (ECD)-his (Sino Biological, Cat #:13482-H08H) (human, UniProt Q9H7M9 33-194)
T1 construct: extracellular domain; Bought protein; also called hVISTA(ECD)-his; recombinant human VISTA(ECD)-his; not shown: his tag
T1 sequence (looked up): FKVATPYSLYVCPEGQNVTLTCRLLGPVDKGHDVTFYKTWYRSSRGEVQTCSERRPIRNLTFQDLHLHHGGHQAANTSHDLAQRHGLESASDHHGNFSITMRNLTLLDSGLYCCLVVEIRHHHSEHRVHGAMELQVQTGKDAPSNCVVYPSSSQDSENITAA
Experiment: ELISA, plate coated with human VISTA (ECD)-his, OD450 [panel A]
Form field: EC50 (read off the curve) (one value per entry).

- binder: "161E5-VH3VL3 (antibody, human IgG1, kappa, V domains shown, One of the 5 humanized 161E5 antibodies, human IgG1/kappa; also called humanized antibody 161E5VH3VL3) VH: QVQLVQSGAEVKKPGASVKVSCKASGYSFTDYYINWVRQRPGQGLEWIARIFPGSGNAYYNEKFKDRATLTVDKSTSTAYMELSSLRSEDTAVYFCARDDSFYGYWYFDVWGQGTTVTVSS VL: NIMMTQSPATLSVSPGERATLSCKSSQSVLYSSNQKNYLAWYQQKPGQSPRLLIYWASTRESGVPDRFSGSGSGTEFTLTISSLQSEDFAVYYCHQYLSSYTFGGGTKVEIKR"
  observed measurement: "~0.03 µg/mL"

Inquiry: Fill in: EC50 (read off the curve) of 161E5-VH0VL0 (antibody, human IgG1, kappa, V domains shown, One of the 5 humanized 161E5 antibodies, human IgG1/kappa; also called humanized antibody 161E5-VH0VL0) VH: QVQLVQSGAEVKKPGASVKVSCKASGYSFTDYYINWVRQAPGQGLEWMGRIFPGSGNAYYNEKFKDRVTMTRDTSTSTVYMELSSLRSEDTAVYYCARDDSFYGYWYFDVWGQGTTVTVSS VL: EIVMTQSPATLSVSPGERATLSCKSSQSVLYSSNQKNYLAWYQQKPGQAPRLLIYWASTRESGIPARFSGSGSGTEFTLTISSLQSEDFAVYYCHQYLSSYTFGGGTKVEIKR is ___
Reply text: ~0.03 µg/mL

Reference for the values: patent US10577424
